Biological target: Ybr033w (UniProt P38073)
Sequence: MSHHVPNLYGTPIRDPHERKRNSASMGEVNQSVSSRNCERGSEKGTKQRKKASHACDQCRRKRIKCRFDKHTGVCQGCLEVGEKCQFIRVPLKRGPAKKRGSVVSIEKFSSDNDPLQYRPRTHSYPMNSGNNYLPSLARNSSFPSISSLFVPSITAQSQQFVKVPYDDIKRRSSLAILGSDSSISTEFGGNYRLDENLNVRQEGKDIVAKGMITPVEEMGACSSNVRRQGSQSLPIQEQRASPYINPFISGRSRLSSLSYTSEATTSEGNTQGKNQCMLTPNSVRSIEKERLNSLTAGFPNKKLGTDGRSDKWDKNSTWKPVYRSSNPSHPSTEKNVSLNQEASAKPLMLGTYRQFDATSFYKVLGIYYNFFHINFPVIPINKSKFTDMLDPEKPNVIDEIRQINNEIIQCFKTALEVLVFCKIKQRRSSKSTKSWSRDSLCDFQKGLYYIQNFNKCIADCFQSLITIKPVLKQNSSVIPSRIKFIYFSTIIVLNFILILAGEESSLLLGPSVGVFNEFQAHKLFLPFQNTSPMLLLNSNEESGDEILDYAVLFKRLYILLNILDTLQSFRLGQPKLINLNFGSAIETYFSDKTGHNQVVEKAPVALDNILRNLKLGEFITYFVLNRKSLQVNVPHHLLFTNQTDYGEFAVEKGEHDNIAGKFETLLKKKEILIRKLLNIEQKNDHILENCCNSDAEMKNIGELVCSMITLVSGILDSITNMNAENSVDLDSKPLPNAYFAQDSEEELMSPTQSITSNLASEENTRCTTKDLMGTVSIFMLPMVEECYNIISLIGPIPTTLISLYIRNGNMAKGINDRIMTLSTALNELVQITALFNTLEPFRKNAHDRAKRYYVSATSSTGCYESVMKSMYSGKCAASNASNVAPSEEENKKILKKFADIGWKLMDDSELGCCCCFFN
Assay: PBM E-score (8-mer binding enrichment) (E-score (-0.5 to 0.5)); higher = stronger / more preferred TF binding
Settings: protein concentration: 200 nM; construct: GST-full length
Whole data set: some 33,000 sequences, median “E-score (-0.5 to 0.5)” near -0.012, cut for the highest 2% near 0.29. This excerpt belongs to a sample that is enriched for the highest values.
property measured: PBM E-score
Lab note: jot down the number only; don't add units.

The examples below pair each entry with its known result.
- macromolecule sequence: "TAATAAAA"
  test result: 0.365
- macromolecule sequence: "CGCGAGCA"
  test result: -0.12
- macromolecule sequence: "AAAGATCG"
  test result: -0.0193
- macromolecule sequence: "GCGCTCTA"
  test result: -0.159
- macromolecule sequence: "ATACATAA"
  test result: 0.309
- macromolecule sequence: "AGTACCGG"
  test result: -0.182

Dear colleague, I am looking for the recorded PBM E-score of the following sequence: `AACTTATA` 0.353

And what about the sequence `ATTAACCC` ? 0.237

Further, for `CAACGATA` ? 0.187

Entry `AGTTGGAT` please 0.288

Next: `ATACAAAT` 0.252

Repeat for the following sequence: `AAATGGCA` 0.101

Another sequence to look at: `ATATAAAA` 0.242

Now the sequence `AAAATTTC` 0.132

Also check `TAAATTAA` 0.283

Do the same for `ATACAAAA` please 0.311

Follow-up entry: `AAAGATCA` 0.173

Another: `ATGGAATA` 0.316

Record: `TAATAATA` 0.33

Moving on to the next sequence: `GAAGATAA` 0.319

Where do these numbers come from? They come from the supplement of paper PMC3334620.
